We begin with a simple list: items and their reported Kd.
# test.target: T1, 人CD38胞外段Flag标签蛋白 hCD38-ECD-Flag (human, UniProt P28907 43-300)
# T1 construct: range 43-300; No linker between CD38 and the tag is stated; also called hCD38-Flag
# T1 sequence: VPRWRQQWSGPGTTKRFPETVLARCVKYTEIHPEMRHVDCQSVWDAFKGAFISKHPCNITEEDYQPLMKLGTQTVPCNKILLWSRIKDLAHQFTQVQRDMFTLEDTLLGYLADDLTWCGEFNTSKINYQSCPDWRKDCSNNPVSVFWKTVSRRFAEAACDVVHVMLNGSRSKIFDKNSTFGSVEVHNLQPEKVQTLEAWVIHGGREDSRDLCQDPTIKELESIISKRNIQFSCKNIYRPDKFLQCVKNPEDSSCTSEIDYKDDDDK
# experimental.details: SPR, Biacore T200; antibody captured on Protein A CM5 chip, hCD38-Flag as analyte
Write the answer as a number in nM, unit excluded.

{"binder": "人源化抗人CD38单克隆抗体145H (antibody, human IgG1, kappa, V domains shown, also called 145号抗体的人源化抗体) VH: QVQLVQSGAEVKKPGASVKVSCKASGYTFTNYLIDWVRQAPGQGLEWIGLINPGSGSTKYNEKFKGRVTLTADKSTSTAYMELSSLRSEDTAVYYCAKTGTLPYWGQGTLVTVSS VL: DIQMTQSPSSLSASVGDRVTITCKASQNVGTSVAWYQQKPGKAPKLLIYSTSYRSSGVPSRFSGSGSGTDFTLTISSLQPEDFATYYCQQYGSYPLTFGQGTKVEIKR", "Kd [nM]": 3.22}
{"binder": "人源化抗人CD38单克隆抗体57H (antibody, human IgG1, kappa, V domains shown, also called 57号抗体的人源化抗体) VH: EVQLVESGGGLVQPGGSLRLSCAASGFTFSSFGMHWVRQAPGKGLEWVAYIGGDSNIIYYADTVKGRFTISRDNSKNTLYLQMNSLRAEDTAVYYCAKSHDYTMDYWGQGTLVTVSS VL: DIVMTQSPSSLAVSLGERVTITCKSSQSLLYSTNQKNYLAWFQQKPGQSPKLLIYWASTRESGVPDRFSGSGSGTDFTLTISSLQAEDVAVYYCQRYYNYPYTFGQGTKVEIKR", "Kd [nM]": 0.382}
{"binder": "人源化抗人CD38单克隆抗体116H (antibody, human IgG1, kappa, V domains shown, also called 116号抗体的人源化抗体) VH: QVTLKESGPALVKPTQTLTLTCTLSGFSLSTSRMGVGWIRQPPGKGLEWLAHIWWDDDKRYNPALKSRLTISKDTSSNQVFLKIASVDKEDTATYYCGRIEVGRGAWFAYWGQGTLVTVSS VL: EIVLTQSPATLSLSPGERVSVTCKASQDVVTTVAWYQQKPGQAPRTLIYSASYRYSGVPARFSGSGSGTDFTLTISSLEPEDFAVYYCQQYYTYPFTFGQGTKVEIKR", "Kd [nM]": 0.065}

Here is another binder to look at.
Ask: Param item = 人源化抗人CD38单克隆抗体105H (antibody, human IgG1, kappa, V domains shown, Humanized IgG1; also called 105-Humanization; 105号抗体的人源化抗体) VH: QVQLVQSGAEVKKPGASVKVSCKASGYTFTSYWMHWVRQAPGQGLEWIGHINPSSGYSEYSQKFKDRATLTADKSTSTAYMELSSLRSEDTAVYYCEIYYYVSRYVGDSWGQGTLVTVSS VL: DIQMTQSPSSLSASVGDRVTITCRASQEISGYLSWLQQKPGKTIKRLIYAASTLDSGVPSRFSGSRSGSDFTLTISSLQPEDFATYYCLQYDSYPLTFGQGTKVEIKR ; retrieve measured Kd.
Reply: 32.8

Data provenance is patent CN114437215A.
